Target: T1, human FcRn/b2M (human, UniProt P61769 21-119, biotinylated)
T1 construct: bought recombinant biotinylated protein (ACRO FCM-H82W4 or Immunitrack ITF01); also called hFcRn; hFcRn/hb2M
T1 sequence (chain, as listed by the source limits assumed, chain 1 of 2): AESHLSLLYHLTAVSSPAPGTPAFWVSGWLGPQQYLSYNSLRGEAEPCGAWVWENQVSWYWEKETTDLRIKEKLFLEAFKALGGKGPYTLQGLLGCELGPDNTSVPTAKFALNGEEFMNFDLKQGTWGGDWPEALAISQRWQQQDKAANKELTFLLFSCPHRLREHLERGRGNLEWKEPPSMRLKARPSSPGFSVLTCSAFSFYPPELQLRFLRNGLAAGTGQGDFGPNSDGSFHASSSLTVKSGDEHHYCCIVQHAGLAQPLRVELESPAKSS
T1 sequence (P61769 21-119 limits assumed, chain 2 of 2): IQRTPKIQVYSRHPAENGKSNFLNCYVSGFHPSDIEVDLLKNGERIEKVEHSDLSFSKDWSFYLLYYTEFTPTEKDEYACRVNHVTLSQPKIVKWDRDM
Experiment: SPR pH 7.4;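 further: surface plasmon resonance kinetics, periplasmic extracts diluted 1:10 flowed over immobilized target at 25 °C, 120 s association then 600–3600 s dissociation, buffer with 150 mM NaCl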
quantity: koff (s⁻¹)
Express your answer in s⁻¹, writing the number without its unit.

binder	reported-measurement
T0263018B11 S52V (VHH, name in Kabat numbering, FLAG3-His6 tagged) VHH: EVQLVESGGGVVQPGGSLRLSCAASGFTFSSYAMYWVRQAPGKGLEWVSAIVSGGGSTDYADSVKGRFTISRDNSKNTLYLQMNSLRPEDTALYYCAADTLYTSLTWYSYWGQGTLVTVSS	0.058
T0263018B11 T28A (VHH, name in Kabat numbering, FLAG3-His6 tagged) VHH: EVQLVESGGGVVQPGGSLRLSCAASGFAFSSYAMYWVRQAPGKGLEWVSAISSGGGSTDYADSVKGRFTISRDNSKNTLYLQMNSLRPEDTALYYCAADTLYTSLTWYSYWGQGTLVTVSS	0.046

[ask] Identify koff associated with the binder T0263018B11 T57S (VHH, name in Kabat numbering, FLAG3-His6 tagged) VHH: EVQLVESGGGVVQPGGSLRLSCAASGFTFSSYAMYWVRQAPGKGLEWVSAISSGGGSSDYADSVKGRFTISRDNSKNTLYLQMNSLRPEDTALYYCAADTLYTSLTWYSYWGQGTLVTVSS
[reply] 0.041

Origin of measurements: patent US20240132624A1
